Where do these numbers come from? They come from patent US11279733B2.

tested on: E. coli ATCC 25922; details: ATCC 25922
Starred links: 1 amine or outer side, 2 acyl side, 3 side chain; linkers in the order of their positions; H or OH if unused. Positions of bridges follow the written chain, without caps; N, C: chain ends. Non-standard residues stand in square brackets, D forms with d. Residues, ends and D or L forms follow the SMILES beside them. *: point of attachment. Decanoyl(3R-OH) = CCCCCCC[C@@H](O)CC(=O)*; azaDab = NCCN(N[*:1])C(=O)[*:2]; dDab = NCC[C@@H](N)C(=O)O; Octanoyl = CCCCCCCC(=O)*; dDap = NC[C@@H](N)C(=O)O; Dab = NCC[C@H](N)C(=O)O
Items are presented alongside their recorded MIC E. coli ATCC 25922.
Quantity measured: MIC E. coli ATCC 25922 (µg/mL)

Compound | Readout unit | Quantitative readout
CCCCCCC[C@@H](O)CC(=O)N[C@H](CCN)C(=O)N[C@H]1CCNC(=O)[C@H](CC(C)C)NC(=O)[C@H](CCN)NC(=O)N(CCN)NC(=O)[C@H](CC(C)C)NC(=O)[C@@H](Cc2ccccc2)NC(=O)[C@H](CCN)NC1=O [compound 8641] ({Decanoyl(3R-OH)}-[dDab][Dab][Dab][dF]L[azaDab][Dab]L; lactam 2-C) | µg/mL | 4
CCCCCCCC(=O)N[C@H](CN)C(=O)N[C@H]1CCNC(=O)[C@H](CC(C)C)NC(=O)[C@H](CCN)NC(=O)[C@H](CCN)NC(=O)[C@H](CC(C)C)NC(=O)[C@@H](CC(C)C)NC(=O)[C@H](CCN)NC1=O [compound 8978] (Octanoyl-[dDap][Dab][Dab][dL]L[Dab][Dab]L; lactam 2-C) | µg/mL | 4
CCCCCCC[C@@H](O)CC(=O)N[C@H](CN)C(=O)N[C@H]1CCNC(=O)[C@H](CC(C)C)NC(=O)[C@H](CCN)NC(=O)[C@H](CCN)NC(=O)[C@H](CC(C)C)NC(=O)[C@@H](CC(C)C)NC(=O)[C@H](CCN)NC1=O [compound 8977] ({Decanoyl(3R-OH)}-[dDap][Dab][Dab][dL]L[Dab][Dab]L; lactam 2-C) | µg/mL | 4

====

Tested on: K. pneumoniae GN_106, PmxR
Settings: GN 106, PmxR
Method: Bacteria were either obtained from American Type Culture Collection (ATCC; Manassas, Va., USA) or independent academic clinical isolate collections, as listed in Table 18 below. Bacteria were cultured in Nutrient broth (NB; Bacto Laboratories, catalogue No. 234000) or Mueller Hinton broth (MHB; Bacto Laboratories, catalogue No. 211443) at 37° C. overnight with shaking (˜180 RPM). […]
Positions of bridges follow the written chain, without caps; N, C: chain ends. Non-standard residues stand in square brackets, D forms with d. Residues, ends and D or L forms follow the SMILES beside them. *: point of attachment. Decanoyl(3R-OH) = CCCCCCC[C@@H](O)CC(=O)*; dChg = N[C@@H](C(=O)O)C1CCCCC1; dDab = NCC[C@@H](N)C(=O)O; dDap = NC[C@@H](N)C(=O)O; Dab = NCC[C@H](N)C(=O)O; Abu = CC[C@H](N)C(=O)O
Quantity measured: MIC K. pneumoniae GN_106, PmxR (µg/mL)

Compound | Readout unit | Quantitative readout
CCCCCCC[C@@H](O)CC(=O)N[C@H](CCN)C(=O)N[C@H]1CCNC(=O)[C@H](Cc2c[nH]c3ccccc23)NC(=O)[C@H](CCN)NC(=O)[C@H](CCN)NC(=O)[C@H](CC(C)C)NC(=O)[C@@H](C2CCCCC2)NC(=O)[C@H](CCN)NC1=O [compound 8899] ({Decanoyl(3R-OH)}-[dDab][Dab][Dab][dChg]L[Dab][Dab]W; lactam 2-C) | µg/mL | 16
CCCCCCC[C@@H](O)CC(=O)N[C@H](CN)C(=O)N[C@H]1CCNC(=O)[C@H](CC(C)C)NC(=O)[C@H](CCN)NC(=O)[C@H](CCN)NC(=O)[C@H](CC)NC(=O)[C@@H](Cc2ccccc2)NC(=O)[C@H](CCN)NC1=O [compound 9292] ({Decanoyl(3R-OH)}-[dDap][Dab][Dab][dF][Abu][Dab][Dab]L; lactam 2-C) | µg/mL | 4
CCCCCCC[C@@H](O)CC(=O)N[C@@H](CCN)C(=O)N[C@H]1CCNC(=O)[C@H](CC(C)C)NC(=O)[C@H](CCN)NC(=O)[C@H](CCN)NC(=O)[C@H](CC(C)C)NC(=O)[C@@H](Cc2ccccc2)NC(=O)[C@H](CCN)NC1=O [compound 8638] ({Decanoyl(3R-OH)}-[Dab][Dab][Dab][dF]L[Dab][Dab]L; lactam 2-C) | µg/mL | 4
